These data points were gathered from patent US12030879B2.

molecular target: NLRP3 (Homo sapiens); construct: Seed THP-1 cells (25,000 cells/well) containing 1.0 μg/ml LPS in 40 μl of RPMI medium; assay: THP-1 cells pyroptosis assay; conditions: LPS 1 μg/ml, compound 3 hrs, nigericin 5 μM 1 hr, resazurin readout
Property: IC50

Example results:
COc1cc(-c2cc(F)cc(C(C)C)c2CC(=O)NS(=O)(=O)c2ccc(C)cc2)ccn1
≤ 5 µM
C=C(C)c1ccc(S(=O)(=O)NC(=O)Cc2c(-c3ccnc(OC)c3)cc(F)cc2C(C)C)c(C)c1
≤ 0.5 µM
COc1cc(-c2cc(F)cc(C(C)C)c2CC(=O)NS(=O)(=O)c2ccc(C)c(F)c2)ccn1
≤ 0.5 µM
COc1cc(-c2cc(F)cc(C(C)C)c2CC(=O)NS(=O)(=O)c2ccn(C(C)(C)CO)n2)ccn1
≤ 5 µM
COc1cc(-c2cc(F)cc(C(C)C)c2CC(=O)NS(=O)(=O)c2ccc(C(C)C)cn2)ccn1
≤ 0.5 µM
COc1ccc(-c2cc(F)cc(C(C)C)c2CC(=O)NS(=O)(=O)c2ccc(C(C)(C)O)cc2C)cn1
≤ 5 µM

Next item in the queue.
Exercise: Using the record for CC(C)c1cc(F)cc(-c2ccncc2)c1CC(=O)NS(=O)(=O)c1ccn(C(C)(C)CN(C)C)n1 , state its measured IC50.
Key: ≤ 5 µM

====

target: NLRP3 (Homo sapiens); construct: Seed THP-1 cells (25,000 cells/well) containing 1.0 μg/ml LPS in 40 μl of RPMI medium; test: THP-1 cells pyroptosis assay; details: LPS 1 μg/ml, compound 3 hrs, nigericin 5 μM 1 hr, resazurin readout
pIC50: −log10 of the molar value. Counter-ions that a name gives are not always drawn.
pIC50 for assorted molecules

Example results:
CC(C)c1cc(F)cc(-c2cccnc2)c1CC(=O)NS(=O)(=O)c1ccn(C(C)C)n1 [Example 24, potassium salt]
≥ 5.00
COc1cc(-c2cc(F)cc(C(C)C)c2CC(=O)NS(=O)(=O)c2ccc(C(C)(C)O)c(F)c2)ccn1 [Example 84]
≥ 6.00

Exercise: Using the record for C=C(C)c1csc(S(=O)(=O)NC(=O)Cc2c(-c3ccnc(OC)c3)cc(F)cc2C(C)C)c1 [Example 150] , state its measured pIC50.
Key: ≥ 6.30

Exercise: Using the record for CN(C)C(=O)c1cc(S(=O)(=O)NC(=O)Cc2c(-c3ccnc(C#N)c3)ccc3c2CCC3)nn1C [Example 65] , state its measured pIC50.
Key: ≥ 5.30

====

molecular target: NLRP3 (Homo sapiens, UniProt Q96P20); construct: Seed THP-1 cells (25,000 cells/well) containing 1.0 μg/ml LPS in 40 μl of RPMI medium; assay: THP-1 cells pyroptosis assay; conditions: LPS 1 μg/ml, compound 3 hrs, nigericin 5 μM 1 hr, resazurin readout
Sequence (Q96P20 whole entry): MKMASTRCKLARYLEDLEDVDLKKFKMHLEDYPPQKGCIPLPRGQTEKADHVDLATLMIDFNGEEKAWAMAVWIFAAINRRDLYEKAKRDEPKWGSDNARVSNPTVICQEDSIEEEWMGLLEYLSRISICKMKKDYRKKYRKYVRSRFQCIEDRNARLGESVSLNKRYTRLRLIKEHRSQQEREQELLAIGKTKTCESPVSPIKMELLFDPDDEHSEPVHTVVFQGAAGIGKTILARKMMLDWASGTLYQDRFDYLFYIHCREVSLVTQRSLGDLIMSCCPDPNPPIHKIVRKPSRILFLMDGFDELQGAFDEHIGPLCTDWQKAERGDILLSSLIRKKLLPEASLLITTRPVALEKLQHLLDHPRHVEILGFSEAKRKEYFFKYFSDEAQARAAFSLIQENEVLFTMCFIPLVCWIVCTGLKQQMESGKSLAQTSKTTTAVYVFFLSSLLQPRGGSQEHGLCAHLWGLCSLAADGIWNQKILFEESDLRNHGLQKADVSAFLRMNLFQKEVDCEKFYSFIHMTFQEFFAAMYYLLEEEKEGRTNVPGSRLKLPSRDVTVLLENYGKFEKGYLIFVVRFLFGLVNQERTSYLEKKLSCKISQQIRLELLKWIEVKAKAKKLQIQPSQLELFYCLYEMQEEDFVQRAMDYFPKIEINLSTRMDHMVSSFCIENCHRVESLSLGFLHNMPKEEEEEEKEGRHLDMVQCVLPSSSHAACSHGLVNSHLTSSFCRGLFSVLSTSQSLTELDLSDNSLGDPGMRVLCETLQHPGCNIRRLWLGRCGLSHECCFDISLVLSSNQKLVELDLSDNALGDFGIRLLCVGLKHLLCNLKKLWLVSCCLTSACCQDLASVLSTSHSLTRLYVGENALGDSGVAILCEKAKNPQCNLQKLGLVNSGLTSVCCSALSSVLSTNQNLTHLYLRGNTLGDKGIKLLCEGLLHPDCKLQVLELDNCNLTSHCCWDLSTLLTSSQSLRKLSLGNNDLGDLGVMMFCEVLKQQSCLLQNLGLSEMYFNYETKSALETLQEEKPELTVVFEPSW
pIC50: −log10 of the molar value.
pIC50 for assorted molecules

Example results:
COc1cc(-c2cc(F)cc(C(C)C)c2CC(=O)NS(=O)(=O)c2cccc(CC#N)c2)ccn1 [Example 32]
≥ 6.00
COc1cc(-c2cc(F)cc(C(C)C)c2CC(=O)NS(=O)(=O)c2cc(Br)cs2)ccn1 [Example 183]
≥ 6.00
COc1cc(-c2cc(F)cc(C(C)C)c2CC(=O)NS(=O)(=O)c2cc(C(C)(C)O)c(F)cc2F)ccn1 [Example 149]
≥ 6.30
COc1ccncc1-c1cc(F)cc(C(C)C)c1CC(=O)NS(=O)(=O)c1cc(C(C)C)c(F)cc1F [Example 203]
≥ 6.30
COC(=O)c1ccc(S(=O)(=O)NC(=O)Cc2c(-c3ccnc(OC)c3)cc(F)cc2C(C)C)cc1Cl [Example 9]
≥ 5.30

Exercise: Using the record for COc1ccncc1-c1cc(F)cc(C(C)C)c1CC(=O)NS(=O)(=O)c1cc(C(C)(C)O)cs1 [Example 99] , state its measured pIC50.
Key: ≥ 6.30

Exercise: Using the record for COc1cc(-c2cc(F)cc(C(C)C)c2CC(=O)NS(=O)(=O)c2ccc3c(c2)CCCO3)ccn1 [Example 118] , state its measured pIC50.
Key: ≥ 6.00

====

IC50 for assorted compounds
target: NLRP3 (Homo sapiens); construct: Seed THP-1 cells (25,000 cells/well) containing 1.0 μg/ml LPS in 40 μl of RPMI medium; test: THP-1 cells pyroptosis assay; details: LPS 1 μg/ml, compound 3 hrs, nigericin 5 μM 1 hr, resazurin readout
Structures can show the parent of a compound that is named as a salt.

Example results:
COc1cc(-c2cc(F)cc(C(C)C)c2CC(=O)NS(=O)(=O)CCCC(C)(C)O)ccn1
≤ 10000 nM
CCc1cccc(S(=O)(=O)NC(=O)Cc2c(-c3ccnc(OC)c3)cc(F)cc2C(C)C)c1
≤ 500 nM
COc1cc(-c2cc(F)cc(C(C)C)c2CC(=O)NS(=O)(=O)c2c(F)cc(C)cc2F)ccn1
≤ 1000 nM
COc1cc(-c2cc(F)cc(C(C)C)c2CC(=O)NS(=O)(=O)c2ccccc2Cl)ccn1
≤ 5000 nM
COc1cc(-c2cc(F)cc(C(C)C)c2CC(=O)NS(=O)(=O)c2ccc(C(C)(C)NC(=O)OC(C)(C)C)c(F)c2)ccn1
≤ 500 nM
COc1cc(-c2cc(F)cc(C(C)C)c2CC(=O)NS(=O)(=O)c2cccc(CO)c2)ccn1 [Example 38, potassium salt]
≤ 1000 nM

Exercise: Using the record for COc1cc(-c2cc(F)cc(C(C)C)c2CC(=O)NS(=O)(=O)c2cnc(N(C)C)cc2C)ccn1 , state its measured IC50.
Key: ≤ 5000 nM

Exercise: Using the record for COc1cc(-c2cc(F)cc(C(C)C)c2CC(=O)NS(=O)(=O)c2ccc(C(C)=O)cc2)ccn1 , state its measured IC50.
Key: ≤ 5000 nM

====

target: NLRP3 (Homo sapiens); construct: Seed THP-1 cells (25,000 cells/well) containing 1.0 μg/ml LPS in 40 μl of RPMI medium; assay: THP-1 cells pyroptosis assay; settings: LPS 1 μg/ml, compound 3 hrs, nigericin 5 μM 1 hr, resazurin readout
IC50 for assorted molecules

COc1cc(-c2cc(F)cc(C(C)C)c2CC(=O)NS(=O)(=O)c2cc(Br)c(F)cc2F)ccn1
≤ 500 nM
C=C(C)c1csc(S(=O)(=O)NC(=O)Cc2c(-c3ccnc(OC)c3)nn(C)c2C(C)C)c1
≤ 10000 nM

Next item in the queue.
Exercise: Write down the reported IC50 (system: NLRP3 (Homo sapiens)) of COc1cc(-c2cc(F)cc(C(C)C)c2CC(=O)NS(=O)(=O)c2ccc(Cl)cc2OC)ccn1
Key: ≤ 1000 nM
